Molecular target: rat δ (C6-DOR) opioid receptor (Rattus norvegicus)
Construct: expressed in transfected cells
Sequence (P33533 whole entry): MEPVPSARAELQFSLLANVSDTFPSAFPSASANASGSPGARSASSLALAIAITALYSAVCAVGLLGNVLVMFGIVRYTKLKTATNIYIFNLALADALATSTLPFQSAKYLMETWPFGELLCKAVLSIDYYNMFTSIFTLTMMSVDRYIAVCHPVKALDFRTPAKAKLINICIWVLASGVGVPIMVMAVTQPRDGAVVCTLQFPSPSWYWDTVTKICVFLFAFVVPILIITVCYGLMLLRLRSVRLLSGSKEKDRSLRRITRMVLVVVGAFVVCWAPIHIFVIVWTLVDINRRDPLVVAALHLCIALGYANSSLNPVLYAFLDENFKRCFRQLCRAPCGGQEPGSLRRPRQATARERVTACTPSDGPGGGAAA
Assay: Stimulation of [35S]GTPγS binding, DOR
Format: biochemical
Conditions: [35S]GTPγS maximal stimulation compared with 10 μM standard DPDPE
Each record's Emax is compared with low group (below 10%), middle group (10% to below 40%), high group (40% or more) to give its class.

compound	group
Cc1cc(O)cc(C)c1C[C@H](N)C(=O)N(C)[C@@H]1CCNc2ccc(Cc3ccccc3)cc21 [Compound 1001]	middle group
Cc1cc(O)cc(C)c1C[C@H](N)C(=O)N[C@@H]1CCNc2ccc(Cc3cc4ccccc4o3)cc21 [Compound 1065]	middle group
Cc1cc(O)cc(C)c1C[C@H](N)C(=O)N[C@@H]1CCNc2c(-c3ccoc3)cc(Cc3ccccc3)cc21 [Compound 1094]	middle group
Cc1cc(O)cc(C)c1C[C@H](N)C(=O)N(C)[C@H]1CCNc2ccc(Cc3ccccc3)cc21 [Compound 1002]	low group
Cc1cc(O)cc(C)c1C[C@H](N)C(=O)N[C@@H]1CCCc2ccccc21 [Compound 1113]	low group
CC(=O)N1CC[C@@H](NC(=O)[C@@H](N)Cc2c(C)cc(O)cc2C)c2cc(Oc3cccc(Cl)c3)ccc21 [Compound 1027]	low group
COc1cc2c(cc1Cc1ccccc1)[C@H](NC(=O)[C@@H](N)Cc1c(C)cc(O)cc1C)CCN2 [Compound 1045]	middle group
Cc1cc(O)cc(C)c1C[C@H](N)C(=O)N[C@@H]1CCS(=O)(=O)c2ccc(Cc3ccccc3)cc21 [Compound 1124]	high group
Cc1cc(O)cc(C)c1C[C@H](N)C(=O)N[C@@H]1CCN2CCCc3cc(Cc4ccccc4)cc1c32 [Compound 1069]	high group
Cc1cc(O)cc(C)c1C[C@H](N)C(=O)N[C@H]1CCNc2ccc(Cc3ccc(F)cc3)cc21 [Compound 1010]	middle group
Cc1cc(O)cc(C)c1C[C@H](N)C(=O)N[C@@H]1CCC(C)(C)c2ccc(Cc3ccccc3)cc21 [Compound 1122]	middle group
CCCCCCc1ccc2c(c1)[C@H](NC(=O)[C@@H](N)Cc1c(C)cc(O)cc1C)CCN2 [Compound 1011]	low group
CC(=O)N1CC[C@@H](NC(=O)[C@@H](N)Cc2c(C)cc(O)cc2C)c2cc(Oc3ccccc3)ccc21 [Compound 1019]	middle group
Cc1cc(O)cc(C)c1C[C@H](N)C(=O)N[C@@H]1CCNc2c(CN3CCNCC3)cc(Cc3ccccc3)cc21 [Compound 1131]	middle group
COc1cc(Cc2ccccc2)cc2c1NCC[C@H]2NC(=O)[C@@H](N)Cc1c(C)cc(O)cc1C [Compound 1063]	high group
CCCc1cc(Cc2ccccc2)cc2c1NCC[C@H]2NC(=O)[C@@H](N)Cc1c(C)cc(O)cc1C [Compound 1056]	middle group
Cc1cc(O)cc(C)c1C[C@H](N)C(=O)N[C@H]1CCNc2ccc(Oc3ccccc3)cc21 [Compound 1018]	middle group
CCc1cc(Cc2ccccc2)cc2c1NCC[C@H]2NC(=O)[C@@H](N)Cc1c(C)cc(O)cc1C [Compound 1127]	high group
Cc1cc(O)cc(C)c1C[C@H](N)C(=O)N[C@@H]1CCCc2ccc(-c3ccccc3)cc21 [Compound 1117]	middle group
CC(=O)N1CC[C@@H](NC(=O)[C@@H](N)Cc2c(C)cc(O)cc2C)c2cc(-c3ccccc3)ccc21 [Compound 1067]	middle group
Cc1cc(O)cc(C)c1C[C@H](N)C(=O)N[C@@H]1CCCc2ccc(-c3cccc4ccccc34)cc21 [Compound 1115]	low group
Cc1cc(O)cc(C)c1C[C@H](N)C(=O)N[C@@H]1CCCc2ccc(Oc3ccccc3)cc21 [Compound 1118]	low group
Cc1cc(O)cc(C)c1C[C@H](N)C(=O)N[C@@H]1C[C@@H](C)Nc2ccc(Cc3ccccc3)cc21 [Compound 1014]	high group
Cc1cc(O)cc(C)c1C[C@H](N)C(=O)N[C@@H]1CCNc2ccc(Cc3ccc(F)cc3)cc21 [Compound 1009]	middle group
CC(=O)N1CC[C@H](NC(=O)[C@@H](N)Cc2c(C)cc(O)cc2C)c2cc(Oc3ccccc3)ccc21 [Compound 1020]	middle group
COc1ccccc1Oc1ccc2c(c1)[C@H](NC(=O)[C@@H](N)Cc1c(C)cc(O)cc1C)CCN2 [Compound 1029]	low group
Cc1cc(O)cc(C)c1C[C@H](N)C(=O)N[C@@H]1CCNc2c1cc(Cc1ccccc1)cc2C(C)(C)C [Compound 1057]	high group
CC(=O)N1CC[C@@H](NC(=O)[C@@H](N)Cc2c(C)cc(O)cc2C)c2cc(Cc3ccccc3)cc(C)c21 [Compound 1055]	middle group

---

Biological target: rat δ (C6-DOR) opioid receptor (Rattus norvegicus)
Construct: expressed in transfected cells
Assay: Stimulation of [35S]GTPγS binding, DOR
Format: biochemical
Settings: [35S]GTPγS binding, C6-DOR membranes; mean ± standard error

compound	EC50 (nm) DOR
Cc1cc(O)cc(C)c1C[C@H](N)C(=O)N[C@@H]1CCNc2c(-c3cc4ccccc4o3)cc(Cc3ccccc3)cc21	dns
CC(=O)N1CC[C@@H](NC(=O)[C@@H](N)Cc2c(C)cc(O)cc2C)c2cc(CN3CCc4ccc(F)cc4C3)ccc21	dns
Cc1cc(O)cc(C)c1C[C@H](N)C(=O)N[C@@H]1CCSc2ccc(Cc3ccccc3)cc21	dns
Cc1cc(O)cc(C)c1C[C@H](N)C(=O)N[C@@H]1CCNc2c(C(=O)NCc3ccccc3)cc(Cc3ccccc3)cc21	dns
CCCC(=O)N1CC[C@@H](NC(=O)[C@@H](N)Cc2c(C)cc(O)cc2C)c2cc(CC3Cc4ccccc4C3)ccc21	dns
Cc1cc(O)cc(C)c1C[C@H](N)C(=O)N[C@@H]1CCNc2c(Cc3ccccc3)cccc21	dns
Cc1cc(O)cc(C)c1C[C@H](N)C(=O)N[C@@H]1CCNc2ccc(CC3Cc4ccccc4C3C)cc21 (stereo partly shown)	dns

---

Consider the following compounds and their measured pKi readings.
Target: human κ (CHO-KOR) opioid receptor (Homo sapiens)
Construct: expressed in transfected cells
Assay: Radioligand binding assay, [3H]diprenorphine displacement, KOR
Conditions: displacement of 0.2 nM [3H]diprenorphine, CHO-KOR membranes; mean ± standard error
pKi: −log10 of the molar value.
recorded-endpoint: pKi

cpd-smiles	meas-value
Cc1cc(O)cc(C)c1C[C@H](N)C(=O)N[C@@H]1CCNc2c(CN3CCOCC3)cc(Cc3ccccc3)cc21	7.71
Cc1cc(O)cc(C)c1C[C@H](N)C(=O)N[C@@H]1CCCc2ccc(-c3ccccc3)cc21	7.68
CC(=O)N1CC[C@@H](NC(=O)[C@@H](N)Cc2c(C)cc(O)cc2C)c2cc(Oc3ccc(Cl)cc3)ccc21	7.34
Cc1cc(O)cc(C)c1C[C@H](N)C(=O)N[C@@H]1CCNc2ccc(-c3ccccc3)cc21	6.78
CCOC(=O)c1cc(Cc2ccccc2)cc2c1NCC[C@H]2NC(=O)[C@@H](N)Cc1c(C)cc(O)cc1C	7.31
Cc1cc(O)cc(C)c1C[C@H](N)C(=O)N[C@@H]1CCNc2cc(O)c(Cc3ccccc3)cc21	7.82
Cc1cc(O)cc(C)c1C[C@H](N)C(=O)N[C@@H]1CCSc2ccc(Cc3ccccc3)cc21	7.32

---

Biological target: human κ (CHO-KOR) opioid receptor (Homo sapiens, UniProt P41145)
Construct: expressed in transfected cells
Sequence (P41145 whole entry): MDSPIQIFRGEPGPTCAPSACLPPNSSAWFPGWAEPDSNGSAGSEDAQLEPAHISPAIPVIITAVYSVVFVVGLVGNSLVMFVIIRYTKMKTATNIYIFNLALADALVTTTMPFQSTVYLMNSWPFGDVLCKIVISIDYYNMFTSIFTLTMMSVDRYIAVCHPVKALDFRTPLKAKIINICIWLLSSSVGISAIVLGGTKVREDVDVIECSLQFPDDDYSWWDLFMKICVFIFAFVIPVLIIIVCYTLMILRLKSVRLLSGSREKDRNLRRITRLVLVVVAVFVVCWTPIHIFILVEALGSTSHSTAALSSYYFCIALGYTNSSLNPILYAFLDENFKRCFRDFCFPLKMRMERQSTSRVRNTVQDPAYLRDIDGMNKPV
Test: Stimulation of [35S]GTPγS binding, KOR
Format: biochemical
Conditions: [35S]GTPγS maximal stimulation compared with 10 μM standard U-69,593
recorded-endpoint: % stimulation KOR

molecule	recorded-endpoint	meas-value
Cc1cc(O)cc(C)c1C[C@H](N)C(=O)N[C@@H]1CCNc2c(-c3cc4ccccc4o3)cc(Cc3ccccc3)cc21 [Compound 1095]	% stimulation KOR	dns
Cc1cc(O)cc(C)c1C[C@H](N)C(=O)N[C@@H]1CCNc2c(CN3CCN(C(=O)[C@@H](N)Cc4c(C)cc(O)cc4C)CC3)cc(Cc3ccccc3)cc21 [Compound 1096]	% stimulation KOR	dns
Cc1cc(O)cc(C)c1C[C@H](N)C(=O)N[C@@H]1CCNc2c(CN3CCOCC3)cc(Cc3ccccc3)cc21 [Compound 1099]	% stimulation KOR	dns
Cc1cc(O)cc(C)c1C[C@H](N)C(=O)N[C@@H]1CCNc2c1cc(Cc1ccccc1)cc2C(C)(C)C [Compound 1057]	% stimulation KOR	dns
Cc1cc(O)cc(C)c1C[C@H](N)C(=O)N[C@@H]1CCNc2ccc(Cc3cc4ccccc4o3)cc21 [Compound 1065]	% stimulation KOR	dns
CC(=O)N1CC[C@@H](NC(=O)[C@@H](N)Cc2c(C)cc(O)cc2C)c2cc(CN3CCc4cccc(C(F)(F)F)c4C3)ccc21 [Compound 1066]	% stimulation KOR	dns
COc1cc(Cc2ccccc2)cc2c1NCC[C@H]2NC(=O)[C@@H](N)Cc1c(C)cc(O)cc1C [Compound 1063]	% stimulation KOR	dns
CCCc1cc(Br)cc2c1NCC[C@H]2NC(=O)[C@@H](N)Cc1c(C)cc(O)cc1C [Compound 1058]	% stimulation KOR	dns
Cc1ccc2c(c1)CN(Cc1ccc3c(c1)[C@H](NC(=O)[C@@H](N)Cc1c(C)cc(O)cc1C)CCN3)CC2 [Compound 1049]	% stimulation KOR	dns
